- Protocol: Cytotoxic effect on murine macrophages (Alamar Blue assay)
- Type: cell-based
- Condition Details: mouse, J774 macrophage cell line; 100 μM; murine macrophages J774, 21 h after the treatment
Measured viability at 21 h, 100 µM accompanies every entry in the list below.
The number alone won't do; follow it with the unit.

### Prompt Which viability at 21 h, 100 µM is reported for this molecule? Cn1c([N+](=O)[O-])cnc1-c1c(-c2ccccc2)nc(-c2ccc(Br)cc2)n1O
### Response 78.7%

### Prompt Same question, Cn1c([N+](=O)[O-])cnc1-c1c(-c2ccccc2)nc(-c2ccc(F)cc2)n1O this time
### Response 97.6%

### Prompt Similarly, Cn1c([N+](=O)[O-])cnc1-c1c(-c2ccccc2)nc(-c2ccc(Cl)cc2)n1O ?
### Response 93.1%
